Each recorded value in this set is attributed to PubChem BioAssay (NCATS).

# experiment description: Quantitative High-Throughput drug screen in 47 multiple myeloma cell lines against the NCATS MIPE library collection: Delta47_JCRB cell viability assay (AID 1918925; further: nearly all actives have a fitted effect of over 45% in size)
# conditions: Delta47 myeloma viability, CellTiter-Glo ATP, 48 h; series mostly up to 45.8 µM
Records with an inconclusive call do not appear. The source made the active and inactive calls. The call rests on the fitted dose curve; in most records, active means well fitted cell-killing curve with a large enough effect; inconclusive means small, poorly fitted or top-dose-only effect, or effect the other way; inactive means no such curve, though single readings can be large or run the other way.
Select the correct class. Options are active, inactive and nothing else.

Which result was noted for this molecule in the test: C[C@@H]1CC(=O)NN=C1c1ccc(NN=C(C#N)C#N)cc1
active

And then O=C1Cc2cc(CCN3CCN(c4nsc5ccccc45)CC3)c(Cl)cc2N1 , what is it?
active

And then CN(C)C(=N)N=C(N)N , what is it?
inactive
